These measurements were taken from ChEMBL document CHEMBL1799995.

assay: Metabolic stability in rat liver homogenates assessed as compound remaining after 30 mins by LC-MS analysis; format: ADME, tissue-based
ENDPOINT_LABEL: remaining at 0.5 h

Give remaining at 0.5 h for CNC(=O)C(=O)NCCCC/C=C\CCCCCCCCCC(=O)O
> 85%

* * *

Documented Activity across a set of compounds
test: Negative chronotropic activity in neonatal Wistar rat Cardiomyocytes assessed as change in heart beating at 30 nM and at 37 degC after 5 mins; assay type: functional, Cardiac muscle cell
Expressed in bpm, but write only the number.

Previously resolved entries follow.
# COMPOUND, UNITS_OF_MEASURE, Activity
data = [
    ("O=C(O)CCCCCCCCC/C=C\\CCCC[C@H]1O[C@H]1CCO", "bpm", -4.8),
    ("CC[C@@H]1O[C@@H]1CCCC/C=C\\CCCCCCCCCC(=O)O", "bpm", -20.3),
    ("CCC1OC1CCCCCCCCCCCCCCCC(=O)O (configuration not stated)", "bpm", 0.8),
    ("CCCCNC(=O)CCC/C=C\\CCCCCCCCCC(=O)O", "bpm", -22.4),
    ("CCCC(=O)NCCCC/C=C\\CCCCCCCCCC(=O)O", "bpm", -1.6),
    ("CNC(=O)C(=O)NCCCC/C=C\\CCCCCCCCCC(=O)O", "bpm", -33.7),
]

Give Activity for CCC1OC1C/C=C\CCCC/C=C\CCCCCCC(=O)O (configuration not stated)
-2.7

Give Activity for CNC(=O)C(=O)NCCCCC#CCCCCCCCCCC(=O)O
-2.6

Give Activity for CCC1OC1CCCCCCC/C=C\CCCCCCC(=O)O (configuration not stated)
-0.6

Give Activity for CCC1OC1C/C=C\CCCCCCC/C=C\CCCC(=O)O (configuration not stated)
0

Give Activity for CCC1OC1C/C=C\CCCCCCCCCCCCC(=O)O (configuration not stated)
-1.2

Give Activity for CCN(C)C(=O)N(C)CCCC/C=C\CCCCCCCCCC(=O)O
-5.8
